Cited source: ChEMBL document CHEMBL1148329

# TARGET: Alpha-1A adrenergic receptor (Oryctolagus cuniculus)
# Sequence (whole entry): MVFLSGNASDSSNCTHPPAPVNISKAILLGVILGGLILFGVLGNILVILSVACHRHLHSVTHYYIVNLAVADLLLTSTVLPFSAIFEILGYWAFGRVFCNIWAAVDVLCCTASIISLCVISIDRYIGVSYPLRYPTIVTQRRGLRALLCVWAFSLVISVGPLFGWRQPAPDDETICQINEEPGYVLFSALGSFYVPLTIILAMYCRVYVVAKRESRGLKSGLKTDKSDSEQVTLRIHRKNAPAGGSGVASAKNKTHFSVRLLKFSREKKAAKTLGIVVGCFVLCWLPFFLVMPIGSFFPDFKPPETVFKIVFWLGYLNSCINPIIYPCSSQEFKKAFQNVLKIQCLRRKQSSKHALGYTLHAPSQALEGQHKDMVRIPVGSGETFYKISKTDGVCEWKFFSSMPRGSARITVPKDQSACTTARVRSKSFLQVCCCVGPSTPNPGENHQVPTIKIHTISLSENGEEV
# MEASUREMENT_PROTOCOL: Functional agonism of the compounds to constrict tissue containing the alpha-1A adrenergic receptor in rabbit urethra
# Assay type: tissue-based
The entries below come with measured pD2 values attached.
REPORTED_ENDPOINT: pD2

| COMPOUND | VALUE_REPORTED |
| --- | --- |
| COc1ccc(OC)c(C(O)CN)c1 (stereo unspecified) | 5.15 |
| O=C(Nc1cccc2c1CCCC2c1c[nH]cn1)C(F)(F)F (stereo unspecified) | 6.28 |
| O=S(=O)(Nc1cccc2c1CCCC2c1c[nH]cn1)C1CC1 (stereo unspecified) | 5.25 |
| CS(=O)(=O)Nc1cccc2c1CCCC2C1=NCCN1 (stereo unspecified) | 6.19 |
| O=S(=O)(CC(F)(F)F)Nc1cccc2c1CCCC2c1c[nH]cn1 (single isomer, unassigned; (+)) | 5.73 |
| CCS(=O)(=O)Nc1cccc(CC2CCCN2)c1 (stereo unspecified) | 4.44 |
| CC(N)C(O)c1ccccc1 (stereo unspecified) | 3.63 |
| CCS(=O)(=O)Nc1cccc2c1CCCC2c1c[nH]cn1 (single isomer, unassigned; (+)) | 6.77 |
| CS(=O)(=O)Nc1ccc(F)c2c1CCCC2c1c[nH]cn1 (stereo unspecified) | 5.31 |
| CS(=O)(=O)Nc1cccc2c1CCCCC2c1c[nH]cn1 (stereo unspecified) | 4.72 |
| CC(C)S(=O)(=O)Nc1cccc2c1CCCC2c1c[nH]cn1 (stereo unspecified) | 5.17 |
